Assayed target: human GLP-1 receptor (human, UniProt P43220 24-463)
Assay summary: cell-based or functional assay

{"Binder": "YXEGTFTSDYSIXLEAAKQXAFVEWLIKGGPSSGASLRHYYNWLTRQRY (Aib at 2, 13, 20; K28 side chain: C20DA-gGlu-gGlu-gGlu-gGlu-gGlu-gGlu-eLys; C-terminal NH2) [Compound 25]", "Value units": "nM", "EC50, CreLuc assay, 100% hP": 14.2}
{"Binder": "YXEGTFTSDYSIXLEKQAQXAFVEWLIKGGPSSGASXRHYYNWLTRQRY (Aib at 2, 13, 20, 37; DTyr 49; K28 side chain: C20DA-gGlu-gGlu-gGlu-gGlu-gGlu-gGlu-eLys; C-terminal NH2) [Compound 74]", "Value units": "nM", "EC50, CreLuc assay, 100% hP": 1.13}
{"Binder": "YXEGTFTSDYSIXLEKQAQXAFVEWLIKGGPSSGASXRHYYNWLTXQRY (Aib at 2, 13, 20, 37; hArg 46; DTyr 49; K28 side chain: C20DA-gGlu-gGlu-gGlu-gGlu-gGlu-gGlu-eLys; C-terminal NH2) [Compound 26]", "Value units": "nM", "EC50, CreLuc assay, 100% hP": 1.18}

From: patent US20240247080A1
